Test: Pharmacokinetic evaluation in mice
Type: in vivo, C57BL/6J male mice
Settings: male, C57BL/6J, mouse, plasma, IP, 2 mg kg-1, read-out: Cmax
Measured Attribute: Cmax (ng/mL)
Your answer should be a plain number; it is taken to be in ng/mL.

What value of Cmax has been recorded for this entry: CC[C@H](C(=O)N1CCCC[C@H]1C(=O)O[C@H](CCc1ccc(OC)c(OC)c1)c1ccccc1OCC(=O)NCCCCCCC(=O)N[C@H](C(=O)N1C[C@H](O)C[C@H]1C(=O)N[C@@H](C)c1ccc(-c2scnc2C)cc1)C(C)(C)C)c1cc(OC)c(OC)c(OC)c1 [dTAG^V-1]
595

----------
Assay: Pharmacokinetic evaluation in mice
Type: in vivo, C57BL/6J male mice
Conditions: male, C57BL/6J, mouse, plasma, IV, 2 mg kg-1, read-out: Vss
Measured Attribute: Vd
State the value, then name its unit.

What value of Vd has been recorded for this entry: CC[C@H](C(=O)N1CCCC[C@H]1C(=O)O[C@H](CCc1ccc(OC)c(OC)c1)c1ccccc1OCC(=O)NCCCCCCC(=O)N[C@H](C(=O)N1C[C@H](O)C[C@H]1C(=O)N[C@@H](C)c1ccc(-c2scnc2C)cc1)C(C)(C)C)c1cc(OC)c(OC)c(OC)c1 [dTAG^V-1]
0.56 L/kg

----------
Experiment: Pharmacokinetic evaluation in mice
Assay type: in vivo, C57BL/6J male mice
Settings: male, C57BL/6J, mouse, plasma, IP, 10 mg kg-1
Measured Attribute: AUC(0-inf) (µg·h/mL)
Your answer should be a plain number; it is taken to be in µg·h/mL.

What value of AUC(0-inf) has been recorded for this entry: "CC[C@H](C(=O)N1CCCC[C@H]1C(=O)O[C@H](CCc1ccc(OC)c(OC)c1)c1ccccc1OCC(=O)NCCCCCCC(=O)N[C@H](C(=O)N1C[C@H](O)C[C@H]1C(=O)N[C@@H](C)c1ccc(-c2scnc2C)cc1)C(C)(C)C)c1cc(OC)c(OC)c(OC)c1"
18.5

----------
Experiment: Pharmacokinetic evaluation in mice
Format: in vivo, C57BL/6J male mice
Details: male, C57BL/6J, mouse, plasma, IP, 2 mg kg-1
Measured Attribute: AUC(0-t) (ng·h/mL)
Your answer should be a plain number; it is taken to be in ng·h/mL.

What value of AUC(0-t) has been recorded for this entry: CC[C@H](C(=O)N1CCCC[C@H]1C(=O)O[C@H](CCc1ccc(OC)c(OC)c1)c1ccccc1OCC(=O)NCCCCCCC(=O)N[C@H](C(=O)N1C[C@H](O)C[C@H]1C(=O)N[C@@H](C)c1ccc(-c2scnc2C)cc1)C(C)(C)C)c1cc(OC)c(OC)c(OC)c1 [dTAG^V-1]
2240

----------
Assay: Pharmacokinetic evaluation in mice
Type: in vivo, C57BL/6J male mice
Conditions: male, C57BL/6J, mouse, plasma, IP, 10 mg kg-1, read-out: Tmax
Measured Attribute: Tmax (h)
Your answer should be a plain number; it is taken to be in h.

What value of Tmax has been recorded for this entry: "CC[C@H](C(=O)N1CCCC[C@H]1C(=O)O[C@H](CCc1ccc(OC)c(OC)c1)c1ccccc1OCC(=O)NCCCCCCC(=O)N[C@H](C(=O)N1C[C@H](O)C[C@H]1C(=O)N[C@@H](C)c1ccc(-c2scnc2C)cc1)C(C)(C)C)c1cc(OC)c(OC)c(OC)c1"
2

----------
Assay: Pharmacokinetic evaluation in mice
Type: in vivo, C57BL/6J male mice
Conditions: male, C57BL/6J, mouse, plasma, IP, 10 mg kg-1
Measured Attribute: AUC(0-t)
State the value, then name its unit.

What value of AUC(0-t) has been recorded for this entry: CC[C@H](C(=O)N1CCCC[C@H]1C(=O)O[C@H](CCc1ccc(OC)c(OC)c1)c1ccccc1OCC(=O)NCCCCCCC(=O)N[C@H](C(=O)N1C[C@H](O)C[C@H]1C(=O)N[C@@H](C)c1ccc(-c2scnc2C)cc1)C(C)(C)C)c1cc(OC)c(OC)c(OC)c1 [dTAG^V-1]
18100 ng·h/mL

----------
Test: Pharmacokinetic evaluation in mice
Assay type: in vivo, C57BL/6J male mice
Conditions: male, C57BL/6J, mouse, plasma, IV, 2 mg kg-1
Measured Attribute: clearance (mL/min/kg)
Your answer should be a plain number; it is taken to be in mL/min/kg.

What value of clearance has been recorded for this entry: "CC[C@H](C(=O)N1CCCC[C@H]1C(=O)O[C@H](CCc1ccc(OC)c(OC)c1)c1ccccc1OCC(=O)NCCCCCCC(=O)N[C@H](C(=O)N1C[C@H](O)C[C@H]1C(=O)N[C@@H](C)c1ccc(-c2scnc2C)cc1)C(C)(C)C)c1cc(OC)c(OC)c(OC)c1"
10.1

----------
Experiment: Pharmacokinetic evaluation in mice
Type: in vivo, C57BL/6J male mice
Settings: male, C57BL/6J, mouse, plasma, IV, 2 mg kg-1
Measured Attribute: AUC(0-t)
State the value, then name its unit.

What value of AUC(0-t) has been recorded for this entry: "CC[C@H](C(=O)N1CCCC[C@H]1C(=O)O[C@H](CCc1ccc(OC)c(OC)c1)c1ccccc1OCC(=O)NCCCCCCC(=O)N[C@H](C(=O)N1C[C@H](O)C[C@H]1C(=O)N[C@@H](C)c1ccc(-c2scnc2C)cc1)C(C)(C)C)c1cc(OC)c(OC)c(OC)c1"
3240 ng·h/mL

----------
Test: Pharmacokinetic evaluation in mice
Assay type: in vivo, C57BL/6J male mice
Details: male, C57BL/6J, mouse, plasma, IV, 2 mg kg-1
Measured Attribute: half-life (h)
Your answer should be a plain number; it is taken to be in h.

What value of half-life has been recorded for this entry: "CC[C@H](C(=O)N1CCCC[C@H]1C(=O)O[C@H](CCc1ccc(OC)c(OC)c1)c1ccccc1OCC(=O)NCCCCCCC(=O)N[C@H](C(=O)N1C[C@H](O)C[C@H]1C(=O)N[C@@H](C)c1ccc(-c2scnc2C)cc1)C(C)(C)C)c1cc(OC)c(OC)c(OC)c1"
3.02

----------
Test: Pharmacokinetic evaluation in mice
Assay type: in vivo, C57BL/6J male mice
Settings: male, C57BL/6J, mouse, plasma, IP, 10 mg kg-1
Measured Attribute: half-life

What value of half-life has been recorded for this entry: CC[C@H](C(=O)N1CCCC[C@H]1C(=O)O[C@H](CCc1ccc(OC)c(OC)c1)c1ccccc1OCC(=O)NCCCCCCC(=O)N[C@H](C(=O)N1C[C@H](O)C[C@H]1C(=O)N[C@@H](C)c1ccc(-c2scnc2C)cc1)C(C)(C)C)c1cc(OC)c(OC)c(OC)c1 [dTAG^V-1]
4.43 h

Reference source: paper PMC7501296
